Target: T1, GPR39 (G protein-coupled receptor 39) (Homo sapiens (Human), UniProt O43194 1-453)
T1 sequence: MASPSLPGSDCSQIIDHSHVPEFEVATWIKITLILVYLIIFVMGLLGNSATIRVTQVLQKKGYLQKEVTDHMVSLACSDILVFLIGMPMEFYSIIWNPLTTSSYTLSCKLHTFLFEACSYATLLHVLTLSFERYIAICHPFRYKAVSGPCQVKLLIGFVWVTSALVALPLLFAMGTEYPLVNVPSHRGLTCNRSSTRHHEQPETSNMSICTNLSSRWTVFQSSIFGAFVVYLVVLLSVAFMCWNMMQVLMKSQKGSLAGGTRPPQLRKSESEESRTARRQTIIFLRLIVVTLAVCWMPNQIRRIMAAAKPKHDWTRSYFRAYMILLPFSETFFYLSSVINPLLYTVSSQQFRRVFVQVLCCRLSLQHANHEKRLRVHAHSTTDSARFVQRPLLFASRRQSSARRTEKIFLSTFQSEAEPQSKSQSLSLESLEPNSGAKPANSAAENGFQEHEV
Assay: cell-based or functional assay
Square brackets hold non-standard residues; d marks the D form. Ends that are not written are not given here. * marks the point of attachment. DAMP‑5 = His whose imidazole is a 3-(2-cyclohexylethyl)-2,3-dihydro-1H-imidazol-4-yl group; dPhe(4-Cl) = N[C@H](Cc1ccc(Cl)cc1)C(=O)O; dPhe(4-Me) = Cc1ccc(C[C@@H](N)C(=O)O)cc1; Trt = c1ccc(C(c2ccccc2)(c2ccccc2)*)cc1; Octanoyl = CCCCCCCC(=O)*
List of EC50 (luciferase reporter) values.
Just the number please, in nM, no unit attached.

Previously resolved entries follow.
| Binder | Numeric Result |
| --- | --- |
| H(Trt)K(Octanoyl)[dPhe(4-Cl)][dY] [HKFY-15] | 98 |
| H(DAMP‑5)K(Octanoyl)FY [HKFY-7] | 1560 |

Now, please, on to the next binder.
Please report the recorded EC50 (luciferase reporter) for H(4‑methoxybenzhydryl)K(Octanoyl)[dPhe(4-Me)]Y [HKFY-64] . 7
